Origin of measurements: paper PMC11347159

Target: T1, EXD3 NTD-EXO(D399A) (Homo sapiens, UniProt Q8N9H8 1-582, D399A)
T1 sequence: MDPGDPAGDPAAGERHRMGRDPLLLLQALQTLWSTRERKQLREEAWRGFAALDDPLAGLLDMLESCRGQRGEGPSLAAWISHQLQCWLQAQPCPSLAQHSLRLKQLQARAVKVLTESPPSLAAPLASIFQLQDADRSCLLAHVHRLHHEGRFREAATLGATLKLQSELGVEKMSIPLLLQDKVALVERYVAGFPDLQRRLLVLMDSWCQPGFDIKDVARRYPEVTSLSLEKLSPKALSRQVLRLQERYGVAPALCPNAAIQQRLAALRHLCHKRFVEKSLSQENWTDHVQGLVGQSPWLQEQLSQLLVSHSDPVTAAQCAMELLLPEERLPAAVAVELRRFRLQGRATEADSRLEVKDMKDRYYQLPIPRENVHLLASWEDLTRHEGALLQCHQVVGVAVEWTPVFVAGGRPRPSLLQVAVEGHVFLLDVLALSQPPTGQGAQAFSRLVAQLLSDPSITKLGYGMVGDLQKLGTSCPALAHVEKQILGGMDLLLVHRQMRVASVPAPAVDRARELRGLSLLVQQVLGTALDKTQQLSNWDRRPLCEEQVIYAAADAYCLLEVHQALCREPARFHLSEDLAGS
Experiment: fluorescence polarization; 250 mM NaCl; Hill h 1.1; FP, 50 nM RNA, 30 min, room temperature; C. elegans proteins: 20 mM HEPES/NaOH pH 7.5, 150 mM NaCl, 10% glycerol, 5 mM EDTA; human proteins: 20 mM HEPES/NaOH pH 7.5, 250 mM NaCl
Details: protein: recombinant; label: 5'-FAM; single strand
reported metric: Kd (µM)
Kindly answer with a numeric value in µM, unit omitted.

I have this binder here, GUUGAUUGAAGAGUUC (ssRNA) [16-mer ssRNA] , and I need its recorded Kd.
11.2
